Attribution: patent US20250171534A1

subject of test: T1, human LILRB1 expressed on cells (human, UniProt Q8NHL6 24-650)
T1 construct: In 293T cells it was expressed from pCMV3-LILRB1-GFP; also called CHO-LILRB1; Jurkat-LILRB1
protocol description: flow cytometry on CHO-LILRB1 cells (CHO-RB1), titrated antibody, labelled anti-human Fc, gMFI
quantity: EC50 (read off the curve)

// EC50 (read off the curve) lookup, key: D2M002-002 (antibody, V domains shown, Hit from immunised mice; also called clone #2; anti-LILRB1/2 clone #2) VH: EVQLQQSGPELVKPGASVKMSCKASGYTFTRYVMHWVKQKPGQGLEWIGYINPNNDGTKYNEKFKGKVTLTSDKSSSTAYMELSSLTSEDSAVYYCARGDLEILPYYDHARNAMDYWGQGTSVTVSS VL: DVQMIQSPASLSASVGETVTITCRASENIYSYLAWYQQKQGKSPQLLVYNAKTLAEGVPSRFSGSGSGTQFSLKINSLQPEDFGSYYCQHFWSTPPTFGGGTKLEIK ~0.2 µg/mL

Item under review: D2M002-103HV1 (antibody, V domains shown, Humanized and optimized variant of the D2M002-002 lineage) VH: QVQLVQSGAEVKKPGASVKVSCKASGYTFTRYVMHWVRQAPGQRLEWIGYINPNNEETKYSQKFKGRVTLTRDTSASTAYMELSSLRSEDTAVYYCARADLEILPYYDHARYAMDYWGQGTLVTVSS VL: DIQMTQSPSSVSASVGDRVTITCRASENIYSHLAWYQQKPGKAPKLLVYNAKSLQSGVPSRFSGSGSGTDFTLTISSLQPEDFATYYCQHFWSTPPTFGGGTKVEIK . Reported EC50 (read off the curve)? ~0.1 µg/mL

Which EC50 (read off the curve) is reported for this binder? D2M002-126 (antibody, V domains shown, Humanized and optimized variant of D2M002-026) VH: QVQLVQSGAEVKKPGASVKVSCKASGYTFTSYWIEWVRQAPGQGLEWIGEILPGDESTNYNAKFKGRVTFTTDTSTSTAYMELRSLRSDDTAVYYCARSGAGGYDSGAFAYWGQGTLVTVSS VL: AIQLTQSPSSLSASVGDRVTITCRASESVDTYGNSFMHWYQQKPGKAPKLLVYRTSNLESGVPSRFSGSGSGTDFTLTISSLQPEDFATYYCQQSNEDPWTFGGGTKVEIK ~0.4 µg/mL
